- ASSAY PROCEDURE: in vivo
- CONDITIONS: rat, po
QUANTITY MEASURED: selectivity ratio
Give a plain numeric answer without units written out.

Respond only with selectivity ratio recorded for O=C([O-])c1ccccc1O.[Na+] [Sodium salicylate] 7.5

Tell me its selectivity ratio given COc1ccc2c(c1)c(CC(=O)O)c(C)n2C(=O)c1ccc(Cl)cc1 as the entry. 5.2

* * *

- ASSAY PROCEDURE: in vivo
- CONDITIONS: rat, po
QUANTITY MEASURED: TD50 at 48 h (mg/kg)
I only need the number, in mg/kg, no unit after it.

Find the measured TD50 at 48 h of COc1ccc2c(c1)c(CC(=O)O)c(C)n2C(=O)c1ccc(Cl)cc1 [Indomethacin] and report it. 14

* * *

- ASSAY PROCEDURE: in vivo
- CONDITIONS: rat, po
QUANTITY MEASURED: TD50 at 4 h
# answer = value followed by unit

State, in one line, measured TD50 at 4 h of COc1ccc2c(c1)c(CC(=O)O)c(C)n2C(=O)c1ccc(Cl)cc1 5 mg/kg
